Hello, the source for this data is PubChem BioAssay (NCI), in case you need it.

- Tested on: OVCAR-8 ovarian
- Test protocol: NCI tumour cell line growth inhibition, 48 h
Give TGI for every item shown.
Just the number in µM, nothing appended.

Q) Please tell me the measured TGI for C=CCO[C@]1(CC=C)C(=O)C(=O)OC1C1COC(C)(C)O1 (stereo not given in full) ; system: OVCAR-8 ovarian.
A) 81.6

Q) Please tell me the measured TGI for C=C1C(=O)O[C@@H]2C[C@]3(C)CC[C@]4(C)[C@H](CC[C@@H]5[C@@]6(C)CCC(=O)C(C)(C)[C@@H]6CC[C@]54C)[C@H]3[C@H]12 ; system: OVCAR-8 ovarian.
A) 38.7

Q) Please tell me the measured TGI for Nc1nc(Cl)c(N=Nc2ccc(Cl)cc2)c(NCC2(CO)CCC2)n1 ; system: OVCAR-8 ovarian.
A) 88.8

Q) Please tell me the measured TGI for S=C(c1c[nH]c2ccccc12)N1CCN(Cc2ccccc2)CC1 ; system: OVCAR-8 ovarian.
A) 43.7
